The reported numbers originate from patent US20120165319A1.

Quick reference for IC50 among some compounds
- System: IL-1β, human peripheral blood mononuclear cells (PBMC)
- experimentDescription: PBMC cell assay: IL-1β assay with human PBMC or enriched adherent mononuclear cells, LPS-stimulated
- Type: cell-based
- conditionLabel: Homo sapiens, PBMC, * = values obtained upon reassay
- Source text: IL-1β Assay with a Mixed Population of Human Peripheral Blood Mononuclear Cells (PBMC) or Enriched Adherent Mononuclear Cells Processing of pre-IL-1β by ICE can be measured in cell culture using a variety of cell sources. Human PBMC obtained from healthy donors provides a mixed population of lymphocyte subtypes and mononuclear cells that produce a spectrum of interleukins and cytokines in response to many classes of physiological stimulators. […]
assayReadout: IC50 (µM)

>>> obsvalue("CS(=O)(=O)N1C[C@H](NC(=O)c2ccccc2)C(=O)N(CC(=O)N[C@H](C=O)CC(=O)O)c2ccccc21 [Compound 605m]")
20
>>> obsvalue("CCOC1OC(=O)C[C@@H]1NC(=O)[C@@H]1CCCN2C(=O)CC[C@H](NC(=O)c3ccccc3)C(=O)N12 (stereo partly shown) [Compound 2100e]")
0.8
>>> obsvalue("O=C[C@H](CC(=O)O)NC(=O)[C@@H]1CCCN2C(=O)CC[C@H](NC(=O)c3c(Cl)cccc3Cl)C(=O)N12 [Compound 444]")
3.5
>>> obsvalue("O=C[C@H](CC(=O)O)NC(=O)[C@@H]1CCCN2C(=O)CCN(NC(=O)c3ccccc3)C(=O)N12 [Compound 265]")
4.3

* * *

Quick list: Ki per entry.
- testSystem: TX (Homo sapiens, UniProt P49662)
- Sequence (P49662 81-270 limits assumed): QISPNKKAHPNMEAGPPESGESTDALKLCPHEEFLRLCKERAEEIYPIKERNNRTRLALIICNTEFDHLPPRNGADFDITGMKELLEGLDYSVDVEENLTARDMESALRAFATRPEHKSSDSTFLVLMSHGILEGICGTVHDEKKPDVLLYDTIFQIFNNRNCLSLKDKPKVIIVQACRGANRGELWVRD
- Sequence (P49662 290-377 limits assumed): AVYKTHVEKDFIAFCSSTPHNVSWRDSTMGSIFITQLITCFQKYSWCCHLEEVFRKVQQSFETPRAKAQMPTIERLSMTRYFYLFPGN
- experimentDescription: Inhibition of ICE homologs: TX
- conditionLabel: ICE substrate, conditions identical to ICE (Table 1)
assayReadout: Ki (nM)

>>> obsvalue("O=C(O)C[C@H](NC(=O)[C@@H]1CCCN2C(=O)CC[C@H](NC(=O)CCc3ccccc3)C(=O)N12)C(=O)CSCc1ccccc1Cl [Compound 125b]")
57
>>> obsvalue("O=C(O)C[C@H](NC(=O)[C@@H]1CCCN2C(=O)CC[C@H](NC(=O)CCc3ccccc3)C(=O)N12)C(=O)c1ncc(-c2c(Cl)cccc2Cl)o1")
40
>>> obsvalue("COc1cccc2nc(C(=O)[C@H](CC(=O)O)NC(=O)[C@@H]3CCCN4C(=O)CC[C@H](NC(=O)CCc5ccccc5)C(=O)N34)oc12 [Compound 135a]")
55
>>> obsvalue("O=C[C@H](CC(=O)O)NC(=O)[C@@H]1CCCN2C(=O)CC[C@H](NC(=O)c3ccccc3)C(=O)N12 [Compound 214e]")
7

* * *

Recorded melting point values for a group of molecules are listed next.
assayReadout: melting point

>>> obsvalue("O=C(O)C[C@H](NC(=O)[C@@H]1CCCN2C(=O)CC[C@H](NC(=O)c3ccccc3)C(=O)N12)C(=O)Cn1cnccc1=O [Compound 510d]")
"140 to 180 °C"
>>> obsvalue("O=C[C@H](CC(=O)O)NC(=O)[C@@H]1CCCN2C(=O)CCN(NC(=O)Cc3ccccc3)C(=O)N12")
"180 to 186 °C"
>>> obsvalue("COc1ccc(C(=O)NN2CCC(=O)N3CCC[C@@H](C(=O)N[C@H](C=O)CC(=O)O)N3C2=O)cc1")
"138 to 142 °C"
>>> obsvalue("COC(=O)N[C@H]1CCC(=O)N2CCC[C@@H](C(=O)N[C@@H](CC(=O)O)C(=O)COc3cccnc3)N2C1=O [Compound 283c]")
"90 to 105 °C"
>>> obsvalue("COC(=O)N[C@H]1CCC(=O)N2CCC[C@@H](C(=O)N[C@@H](CC(=O)O)C(=O)COC(=O)c3c(C)cccc3C)N2C1=O")
"110 °C (dec.)"
>>> obsvalue("O=C[C@H](CC(=O)O)NC(=O)[C@@H]1CCCN2C(=O)CCN(NS(=O)(=O)c3ccc4ccccc4c3)C(=O)N12 [Compound 265a]")
"126 to 130 °C (dec.)"
